Tested on: Human immunodeficiency virus 1
Experiment: Antiviral activity against HIV1 harboring K103 N mutant infected in human MT4 cells assessed as protection against virus-induced cytopathicity
Type: functional, organism-based
Details: Human immunodeficiency virus 1, MT4
Measured property: pEC50
Scale explanation: pEC50 corresponds to minus log10 of a concentration expressed in moles per litre.

Reference set, count: 5
>>> readout_value("O=c1[nH]c(=O)n(COCc2ccccc2)c(Sc2cccc(Br)c2)c1C1CC1")
5.44
>>> readout_value("Cc1cc(C)cc(Sc2c(C3CC3)c(=O)[nH]c(=O)n2COCc2ccccc2)c1")
5.98
>>> readout_value("COc1cccc(Sc2c(C3CC3)c(=O)[nH]c(=O)n2COCc2ccccc2)c1")
5.03
>>> readout_value("O=c1[nH]c(=O)n(COCc2ccccc2)c(Sc2cc(Cl)cc(Cl)c2)c1C1CC1")
5.56
>>> readout_value("O=c1[nH]c(=O)n(COCc2ccccc2)c(Sc2ccccn2)c1C1CC1")
5.21

compound `Cc1ccnc2c1NC(=O)c1cccnc1N2C1CC1` , pEC50 observed: 5.27

compound `O=c1[nH]c(=O)n(COCc2ccccc2)c(Sc2ccccc2Cl)c1C1CC1` , pEC50 observed: 5.04

compound `Cc1cccc(Sc2c(C3CC3)c(=O)[nH]c(=O)n2COCc2ccccc2)c1` , pEC50 observed: 5.56
